All figures here come from BigSolDB 2.1.

# details: in sec-butanol, 273.15 K

# smi, solubility (mole fraction)
records = [
    ("CC(C)(c1ccc(O)cc1)c1ccc(O)cc1", 0.0343),
]

* * *

# details: in sec-butanol, 283.15 K

# smi, solubility (mole fraction)
data = [
    ("CC(C)(c1ccc(O)cc1)c1ccc(O)cc1", 0.0465),
]

* * *

# details: in ethyl acetate, 303.15 K

# smi, solubility (mole fraction)
records = [
    ("CC(C)(c1ccc(O)cc1)c1ccc(O)cc1", 0.256),
]

* * *

# details: in sec-butanol, 293.15 K
measuredAttribute: solubility (mole fraction)

# smi, measuredAttribute, observedMeasurement
data = [
    ("CC(C)(c1ccc(O)cc1)c1ccc(O)cc1", "solubility (mole fraction)", 0.0649),
]

* * *

# details: in ethanol, 293.15 K

# smi, solubility (mole fraction)
data = [
    ("CC(C)(c1ccc(O)cc1)c1ccc(O)cc1", 0.232),
]

* * *

# details: in sec-butanol, 298.15 K

# smi, solubility (mole fraction)
rows = [
    ("CC(C)(c1ccc(O)cc1)c1ccc(O)cc1", 0.0725),
]

* * *

# details: in n-butanol, 303.15 K

# smi, solubility (mole fraction)
data = [
    ("CC(C)(c1ccc(O)cc1)c1ccc(O)cc1", 0.147),
]

* * *

# details: in ethyl acetate, 293.15 K

# smi, solubility (mole fraction)
data = [
    ("CC(C)(c1ccc(O)cc1)c1ccc(O)cc1", 0.247),
]

* * *

# details: in n-butanol, 283.15 K

# smi, solubility (mole fraction)
data = [
    ("CC(C)(c1ccc(O)cc1)c1ccc(O)cc1", 0.094),
]

* * *

# details: in ethanol, 278.15 K

# smi, solubility (mole fraction)
records = [
    ("CC(C)(c1ccc(O)cc1)c1ccc(O)cc1", 0.214),
]

* * *

# details: in ethanol, 303.15 K

# smi, solubility (mole fraction)
records = [
    ("CC(C)(c1ccc(O)cc1)c1ccc(O)cc1", 0.245),
]

* * *

# details: in sec-butanol, 308.15 K
measuredAttribute: solubility (mole fraction)

# smi, observedMeasurement
data = [
    ("CC(C)(c1ccc(O)cc1)c1ccc(O)cc1", 0.094),
]

* * *

# details: in ethanol, 273.15 K

# smi, solubility (mole fraction)
rows = [
    ("CC(C)(c1ccc(O)cc1)c1ccc(O)cc1", 0.209),
]

* * *

# details: in ethyl acetate, 288.15 K

# smi, solubility (mole fraction)
data = [
    ("CC(C)(c1ccc(O)cc1)c1ccc(O)cc1", 0.243),
]

* * *

# details: in ethyl acetate, 283.15 K
measuredAttribute: solubility (mole fraction)

# smi, observedMeasurement
records = [
    ("CC(C)(c1ccc(O)cc1)c1ccc(O)cc1", 0.241),
]

* * *

# details: in ethyl acetate, 298.15 K

# smi, solubility (mole fraction)
records = [
    ("CC(C)(c1ccc(O)cc1)c1ccc(O)cc1", 0.252),
]

* * *

# details: in n-butanol, 288.15 K

# smi, solubility (mole fraction)
measured = [
    ("CC(C)(c1ccc(O)cc1)c1ccc(O)cc1", 0.106),
]

* * *

# details: in n-butanol, 308.15 K

# smi, solubility (mole fraction)
measured = [
    ("CC(C)(c1ccc(O)cc1)c1ccc(O)cc1", 0.166),
]

* * *

# details: in n-butanol, 278.15 K

# smi, solubility (mole fraction)
rows = [
    ("CC(C)(c1ccc(O)cc1)c1ccc(O)cc1", 0.0832),
]
